TARGET_SYSTEM: Gal4-RORγ-LBD (Homo sapiens)
Construct: expressed in transfected cells; host or cells: HEK-293 cells (pcDNA3.1neo plasmid)
Sequence (P51449 269-508 limits assumed): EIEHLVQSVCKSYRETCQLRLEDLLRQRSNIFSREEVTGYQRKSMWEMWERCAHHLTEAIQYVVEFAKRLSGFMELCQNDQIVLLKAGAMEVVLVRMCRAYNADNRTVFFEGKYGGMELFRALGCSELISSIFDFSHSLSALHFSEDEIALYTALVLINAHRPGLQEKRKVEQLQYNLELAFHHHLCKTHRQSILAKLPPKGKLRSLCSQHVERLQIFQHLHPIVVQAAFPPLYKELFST
EXPERIMENT_DESCRIPTION: Gal4-RORγ Luciferase Reporter Assay in HEK-293T Cells
Assay type: cell-based
CONDITION_SUMMARY: HEK-293 cells, 2 μM ursolic acid
pEC50: −log10 of the molar value.
OBSERVED_PROPERTY: pEC50

| MOLECULE | pEC50 |
| --- | --- |
| O=C(O)C1(C[C@H]2CN(S(=O)(=O)c3cccc(C(F)(F)F)c3)c3cc(-c4cc(F)cc(F)c4)ccc3O2)CCC1 [Compound 32BD] | > 6.30 |
| NS(=O)(=O)CCC(=O)NC[C@H]1CN(S(=O)(=O)c2cccc(C(F)(F)F)c2)c2cc(-c3cc(F)cc(OC(F)F)c3)ccc2O1 [Compound 30DA] | 5.30 to 6.30 |

Enquiry: Report pEC50, nothing else, for this molecule: "O=C(O)[C@]1(C[C@H]2CN(S(=O)(=O)c3cccc(C(F)(F)F)c3)c3cc(-c4cc(F)cc(OC(F)F)c4)ccc3O2)C[C@](O)(CO)C1"
Return: 5.30 to 6.30

Enquiry: Report pEC50, nothing else, for this molecule: CC(C)(C[C@H]1CN(S(=O)(=O)c2cccc(C(F)(F)F)c2)c2cc(-c3cc(F)cc(Cl)c3)ccc2O1)C(=O)O [Compound 32Y]
Return: > 6.30

Enquiry: Report pEC50, nothing else, for this molecule: CC(C)(C[C@H]1CN(S(=O)(=O)c2cccc(C(F)(F)F)c2)c2cc(-c3cc(Cl)cc(C(F)(F)F)c3)ccc2O1)C(=O)O [Compound 32AB]
Return: > 6.30

Enquiry: Report pEC50, nothing else, for this molecule: CC(=O)N[C@H]1C[C@H](C[C@H]2CN(S(=O)(=O)c3cccc(C(F)(F)F)c3)c3cc(-c4cc(F)ccc4F)ccc3O2)C1 [Compound 60E]
Return: > 6.30

* * *

TARGET_SYSTEM: Gal4-RORγ-LBD (Homo sapiens)
Construct: expressed in transfected cells; host or cells: HEK-293 cells (pcDNA3.1neo plasmid)
EXPERIMENT_DESCRIPTION: Gal4-RORγ Luciferase Reporter Assay in HEK-293T Cells
Type: cell-based
CONDITION_SUMMARY: HEK-293 cells, luciferase reporter, with 2 μM ursolic acid
Entries and their EC50 values follow.

# annotated cases, reported EC50 shown
| COMPOUND | OBSERVED_PROPERTY | REPORTED_VALUE |
| --- | --- | --- |
| O=C(CC[C@H]1CN(S(=O)(=O)c2cccc(C(F)(F)F)c2)c2cc(-c3cccc(Cl)c3)ccc2O1)N1CCS(=O)(=O)CC1 [Compound 23A] | EC50 | < 500 nM |
| O=C(CC[C@H]1CN(S(=O)(=O)c2cccc(C(F)(F)F)c2)c2cc(-c3cccc(Cl)c3)ccc2O1)N1CCOCC1 [Compound 23B] | EC50 | < 500 nM |
| C[C@@H](C[C@H]1CN(S(=O)(=O)c2cccc(C(F)(F)F)c2)c2cc(-c3cc(F)cc(F)c3Cl)ccc2O1)C(=O)O [Compound 46C] | EC50 | < 500 nM |
| CC(C)c1cccc(S(=O)(=O)N2C[C@H](CCNC(=O)C(C)(C)O)Oc3ccc(-c4cccc(N(C)C)n4)cc32)c1 [Compound 30G] | EC50 | < 500 nM |
| O=C(O)CC[C@H]1CN(S(=O)(=O)c2cccc(C(F)(F)F)c2)c2cc(-c3cc(Cl)cc(F)c3F)ccc2O1 [Compound 4AQ] | EC50 | < 500 nM |
| O=C(O)CC[C@H]1CN(S(=O)(=O)c2cccc(C(F)(F)F)c2)c2cc(-c3cccc(F)c3Cl)ccc2O1 [Compound 2AH] | EC50 | < 500 nM |

Enquiry: Using Gal4-RORγ-LBD (Homo sapiens) as the test system, report measured EC50 of COc1cccc(-c2cc3c(cc2Cl)O[C@@H](CCC(=O)O)CN3S(=O)(=O)c2cccc(C(F)(F)F)c2)c1 [Compound 22C] .
Return: < 500 nM

Enquiry: Using Gal4-RORγ-LBD (Homo sapiens) as the test system, report measured EC50 of COc1cccc(-c2ccc3c(c2)N(S(=O)(=O)c2ccc(F)c(OC)c2)C[C@H](CCNC(=O)C(C)(C)O)O3)c1 [Compound 30N] .
Return: < 500 nM

Enquiry: Using Gal4-RORγ-LBD (Homo sapiens) as the test system, report measured EC50 of O=C(NC[C@H]1CN(S(=O)(=O)c2cccc(C(F)(F)F)c2)c2cc(-c3cc(F)ccc3F)ccc2O1)C1(F)CC1 [Compound 30AR] .
Return: < 500 nM

Enquiry: Using Gal4-RORγ-LBD (Homo sapiens) as the test system, report measured EC50 of O=C(NC[C@H]1CN(S(=O)(=O)c2cccc(C(F)(F)F)c2)c2cc(-c3cc(F)ccc3F)ccc2O1)c1cn[nH]c1 [Compound 30AC] .
Return: 500 to 5000 nM

Enquiry: Using Gal4-RORγ-LBD (Homo sapiens) as the test system, report measured EC50 of O=C(O)CCC[C@H]1CN(S(=O)(=O)c2cccc(C(F)(F)F)c2)c2cc(-c3cccc(C(F)(F)F)n3)ccc2O1 [Compound 21C] .
Return: < 500 nM

Enquiry: Using Gal4-RORγ-LBD (Homo sapiens) as the test system, report measured EC50 of O=C(NC[C@H]1CN(S(=O)(=O)c2cccc(C(F)(F)F)c2)c2cc(-c3cc(F)ccc3F)ccc2O1)C1(O)CC1 [Compound 30AG] .
Return: < 500 nM

Enquiry: Using Gal4-RORγ-LBD (Homo sapiens) as the test system, report measured EC50 of COc1cncc(-c2ccc3c(c2)N(S(=O)(=O)c2cccc(C(F)(F)F)c2)C[C@H](CCC(=O)O)O3)n1 [Compound 4Y] .
Return: 500 to 5000 nM

Taken from patent US10611740B2.
